List of Hepatotoxicity (association with vascular disease) values.
- test.parameters: human;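 also: count of indexed literature references reporting vascular liver injury in humans, e.g. peliosis hepatitis, hepatic veno-occlusive disease or Budd-Chiari syndrome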

Field: example entries. Status: answers known.
Cn1c(=O)c2[nH]cnc2n(C)c1=O.O	0
CC[C@H]1OC(=O)[C@H](C)[C@@H](O[C@H]2C[C@@](C)(OC)[C@@H](O)[C@H](C)O2)[C@H](C)[C@@H](O[C@@H]2O[C@H](C)C[C@H](N(C)C)[C@H]2O)[C@](C)(O)C[C@@H](C)[C@@H]2N[C@@H](COCCOC)O[C@H]([C@H]2C)[C@]1(C)O	0

Please list Hepatotoxicity (association with vascular disease) recorded for the compound CCC1=C(C[C@H]2NCCc3cc(OC)c(OC)cc32)C[C@H]2c3cc(OC)c(OC)cc3CCN2C1 [DEHYDROEMETINE]
0
